- TEST SYSTEM: Pyruvate carboxylase (Staphylococcus aureus (strain Mu50 / ATCC 700699), UniProt A0A0H3JRU9)
- EXPERIMENT SUMMARY: Inhibition of Staphylococcus aureus pyruvate carboxylase by FVB based high-throughput fixed time assay
PROPERTY LABEL: pIC50
Just the number, please; pIC50 means minus log10 of the concentration in mol/L.

Notebook: CN1C(=O)C(=O)N(CC(=O)c2cccs2)C1=O , pIC50 read as 4.46

###

- TEST SYSTEM: Pyruvate carboxylase (Staphylococcus aureus (strain Mu50 / ATCC 700699), UniProt A0A0H3JRU9)
- Sequence (A0A0H3JRU9 whole entry): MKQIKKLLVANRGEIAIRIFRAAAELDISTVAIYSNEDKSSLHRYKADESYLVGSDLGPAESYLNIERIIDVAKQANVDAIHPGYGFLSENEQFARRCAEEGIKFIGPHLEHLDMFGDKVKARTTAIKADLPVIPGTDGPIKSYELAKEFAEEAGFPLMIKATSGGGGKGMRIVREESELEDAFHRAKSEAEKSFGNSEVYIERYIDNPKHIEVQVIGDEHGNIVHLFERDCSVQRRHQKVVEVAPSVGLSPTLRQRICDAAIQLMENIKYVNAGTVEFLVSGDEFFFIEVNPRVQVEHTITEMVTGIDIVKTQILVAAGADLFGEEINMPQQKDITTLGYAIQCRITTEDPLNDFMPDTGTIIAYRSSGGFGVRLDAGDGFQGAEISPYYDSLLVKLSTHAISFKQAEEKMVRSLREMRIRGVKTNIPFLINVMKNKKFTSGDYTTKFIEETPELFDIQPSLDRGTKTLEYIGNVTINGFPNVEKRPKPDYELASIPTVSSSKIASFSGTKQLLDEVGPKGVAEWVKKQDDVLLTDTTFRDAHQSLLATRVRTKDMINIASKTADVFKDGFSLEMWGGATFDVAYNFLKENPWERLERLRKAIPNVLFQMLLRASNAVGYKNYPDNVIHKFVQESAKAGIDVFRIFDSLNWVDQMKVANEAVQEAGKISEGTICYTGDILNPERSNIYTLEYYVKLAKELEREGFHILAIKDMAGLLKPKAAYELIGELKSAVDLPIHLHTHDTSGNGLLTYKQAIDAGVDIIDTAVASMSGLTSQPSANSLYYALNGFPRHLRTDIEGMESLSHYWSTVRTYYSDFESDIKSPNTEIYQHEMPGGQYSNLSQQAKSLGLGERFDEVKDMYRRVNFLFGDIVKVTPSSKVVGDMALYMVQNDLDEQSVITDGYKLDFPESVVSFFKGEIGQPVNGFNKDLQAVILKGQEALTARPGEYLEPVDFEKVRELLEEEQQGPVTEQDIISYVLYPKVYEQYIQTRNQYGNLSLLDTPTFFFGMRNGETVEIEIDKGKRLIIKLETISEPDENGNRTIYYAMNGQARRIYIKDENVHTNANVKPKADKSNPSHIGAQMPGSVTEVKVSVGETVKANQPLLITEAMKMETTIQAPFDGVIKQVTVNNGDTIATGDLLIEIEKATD
- EXPERIMENT SUMMARY: Mixed type inhibition of Staphylococcus aureus pyruvate carboxylase assessed as inhibition constant pretreated with ATP followed by pyruvate, HCO3- and NADH addition by steady state kinetic analysis
PROPERTY LABEL: pKi
Just the number, please; pKi means minus log10 of the concentration in mol/L.

Notebook: CCOC(=O)CN1C(=O)C(=O)N(Cc2ccccc2)C1=O , pKi read as 5.15
